Listed next: entries and their corresponding pEC50.
system: Tau phosphorylation at Ser396 (pSer396); test: Tau phosphorylation assay (pSer396 ELISA / western blot) in SH-SY5Y cells; assay type: cell-based, human; settings: Homo sapiens; SH-SY5Y cells, overnight (16-18 h) exposure; read-out: pSer396 Tau EC50;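 also: EC50 for reduction of Tau pSer396 in lysed cells, measured by colorimetric ELISA or chemiluminescent western blot, both using the same pSer396 antibody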
The read-out pEC50 is expressed as -log10 of concentration in moles per litre.

{"COMPOUND": "Cn1ncc(-c2ccc3cnc(NC(=O)C4CCN(C(=O)c5ccccc5)CC4)cc3c2)c1CN1CCCCC1 [Compound 831]", "pEC50": 6.72}

What value of measured pEC50 is listed for Cn1cc(-c2ccc3cnc(NC(=O)[C@@H]4CCCCN4)cc3c2)cn1 [Compound 340] ?
5.64

And the next one, CN1CCN(CC(=O)Nc2cc3cc(-c4cnn(C)c4)c(F)cc3cn2)CC1 [Compound 372] ?
5.96

And the next one, Cn1cc(-c2ccc3cnc(NC(=O)C4CCN(C(=O)CN5CCCC5)CC4)cc3c2)nn1 [Compound 475] ?
5.74

====

molecular target: recombinant GSK3β kinase (Homo sapiens (Human)); assay: GSK3β kinase assay (Ser/Thr 09 peptide Z-lyte FRET); details: 46 μM ATP, 1 h room temperature;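 also: kinase activity read as coumarin to fluorescein emission ratio, 11-point threefold dilutions from 10 µM to 0.0003 µM in duplicate, unphosphorylated and phosphorylated peptide as 0% and 100% controls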
Sequence (P49841 whole entry): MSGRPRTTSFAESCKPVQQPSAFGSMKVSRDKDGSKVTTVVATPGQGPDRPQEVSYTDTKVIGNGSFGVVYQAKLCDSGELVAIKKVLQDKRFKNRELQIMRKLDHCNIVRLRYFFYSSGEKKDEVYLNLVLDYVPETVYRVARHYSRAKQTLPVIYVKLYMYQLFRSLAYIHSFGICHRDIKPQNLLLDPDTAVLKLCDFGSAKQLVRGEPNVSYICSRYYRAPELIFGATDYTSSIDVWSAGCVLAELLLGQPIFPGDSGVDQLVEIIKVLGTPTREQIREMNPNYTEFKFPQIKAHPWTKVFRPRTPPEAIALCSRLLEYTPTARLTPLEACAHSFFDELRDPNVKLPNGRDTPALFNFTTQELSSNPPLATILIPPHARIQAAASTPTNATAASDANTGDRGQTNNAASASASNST
MEASUREMENT_LABEL: pEC50
The read-out pEC50 is expressed as -log10 of concentration in moles per litre.

{"MOL": "C[C@H]1COCCN1CC(=O)Nc1cc2cc(-c3cnn(C)c3)ccc2cn1", "TARGET": "recombinant GSK3β kinase (Homo sapiens (Human))", "MEASUREMENT_LABEL": "pEC50", "OBS_VALUE": 7.05}
{"MOL": "CN1CCC(C(=O)Nc2cc3cc(-c4cnc5n4CCNC5)ccc3cn2)CC1", "TARGET": "recombinant GSK3β kinase (Homo sapiens (Human))", "MEASUREMENT_LABEL": "pEC50", "OBS_VALUE": 6.53}

Item: "Cc1cc(-c2ccc3cnc(NC(=O)C4CCN(CCC(F)(F)F)CC4)cc3c2)on1" Test system: recombinant GSK3β kinase (Homo sapiens (Human)) Read-out: pEC50 Value: ?
5.28

And the next one, "CNc1ncc(-c2ccc3cnc(NC(=O)C4CCN(C)CC4)cc3c2)s1" ?
7.24

====

test system: Wnt pathway (Sp5-Luc reporter, TCF/LEF binding sites) in SW480 colon carcinoma cells; experiment: Screening assay for Wnt activity: Sp5-Luc reporter gene assay; assay type: cell-based, human; details: Homo sapiens; Sp5-Luc reporter, SW480 cells, 36 to 48 hours;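 also: firefly luciferase luminescence read in stably transduced SW480 cells carrying the Sp5 promoter reporter with eight TCF/LEF sites, compounds given in 0.1% DMSO final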
pEC50: −log10 of the molar value.
Class TRUE: pEC50 at least 6. Class FALSE: pEC50 below 6.

Below, 5 compounds whose answers are already recorded.
{"COMPOUND": "Cn1cc(-c2ccc3cnc(NC(=O)CN4CCC(O)CC4)cc3c2)cn1", "LABEL_VALUE": "FALSE"}
{"COMPOUND": "Cn1ncc(-c2ccc3cnc(NC(=O)C4CC5(C4)CN(CCF)C5)cc3c2)c1CN1CCCCC1", "LABEL_VALUE": "TRUE"}
{"COMPOUND": "O=C(CN1CCCC1)Nc1cc2cc(-c3cnn(C4CC4)c3)ccc2cn1", "LABEL_VALUE": "FALSE"}
{"COMPOUND": "O=C(CN1CCOCC1)Nc1cc2cc(-c3cncs3)ccc2cn1", "LABEL_VALUE": "FALSE"}
{"COMPOUND": "Cn1cc(-c2ccc3cnc(NC(=O)CN4C[C@H]5C[C@@H]4CO5)cc3c2)cn1", "LABEL_VALUE": "FALSE"}

# bool: pEC50 of "O=C(Nc1cc2cc(-c3cnc4n3CCNC4)ccc2cn1)C1CCN(C(=O)c2ccccc2)CC1" >= 6
FALSE

And the next one, "Cn1ncc(-c2ccc3cnc(NC(=O)C4CCC(F)(F)CC4)cc3c2)c1CN1CCC1" ?
FALSE

And the next one, "Cn1cc(-c2ccc3cnc(NC(=O)[C@H]4CC[C@H](CO)CC4)cc3c2)cn1" ?
TRUE

And the next one, "CN1CCC(C(=O)Nc2cc3cc(-c4cnc5n4CCNC5)ccc3cn2)CC1" ?
FALSE

And the next one, "CC(C)CN1CCC(F)(C(=O)Nc2cc3cc(-c4nncn4C)ccc3cn2)CC1" ?
FALSE

And the next one, "O=C(Nc1cc2cc(-c3cnn4c3CN(CCF)CC4)ccc2cn1)C1CCN(CC2(C(F)(F)F)CC2)CC1" ?
FALSE

And the next one, "CN(C)[C@H]1CC[C@H](C(=O)Nc2cc3cc(-c4cncs4)ccc3cn2)CC1" ?
TRUE

And the next one, "CN(C)c1nnc(-c2ccc3cnc(NC(=O)C4CCNCC4)cc3c2)o1" ?
FALSE

And the next one, Cn1cc(-c2ccc3cnc(NC(=O)CN4CC5CC5C4)cc3c2)cn1 (centres unmarked) ?
FALSE

And the next one, "CN1CCN(CC(=O)Nc2cc3cc(-c4cnco4)ccc3cn2)CC1" ?
FALSE

And the next one, "CC#CC(=O)Nc1cc2cc(-c3cnn(C)c3)ccc2cn1" ?
TRUE

And the next one, "Cn1cncc1-c1ccc2cnc(NC(=O)C3C(C)(C)C3(C)C)cc2c1" ?
FALSE

And the next one, "CC(C)N1CCC(C(=O)Nc2cc3cc(-c4cnn(C)c4)ccc3cn2)CC1" ?
TRUE

And the next one, "Cn1cncc1-c1ccc2cnc(NC(=O)CN3CCCCC3)cc2c1" ?
FALSE

And the next one, "CN1CCN(CC(=O)Nc2cc3cc(-c4cnn5c4CN(CCF)CC5)ccc3cn2)CC1" ?
FALSE

And the next one, "C[C@H]1CN(CC(=O)Nc2cc3cc(-c4cnn(C)c4)ccc3cn2)CCO1" ?
FALSE

And the next one, "Cn1cc(-c2ccc3cnc(NC(=O)C4(F)CCNCC4)cc3c2)cn1" ?
FALSE

And the next one, "Cn1cc(-c2ccc3cnc(NC(=O)C4CCN(CC5(C)COC5)CC4)cc3c2)nn1" ?
TRUE

And the next one, "CN1CCC(N(C)C(=O)Nc2cc3cc(-c4cnn(C)c4)ccc3cn2)CC1" ?
FALSE
